Just for reference, a melting point compilation (Tetko et al.; mined from patent text by program, amines drawn as free bases though some values may be those of a salt) is where these values come from.

Entries and their measured melting point follow.

Smiles representation: COc1c(C(=O)O)nc(N2CCCCS2(=O)=O)n(C)c1=O
melting point: 180 to 181 °C
//
Smiles representation: O=Cc1c(O)cccc1OCc1ccc(C(=O)O)cc1
melting point: 239 to 240 °C
//
Smiles representation: CON1C(=O)CC2(CCN(C(=O)C3=CN(C)C=CC3)CC2)C1=O
melting point: 46 to 62 °C
//
Smiles representation: COc1cc(CCNc2ncnc3c(F)ccc(F)c23)ccc1Oc1ccc(C(F)(F)F)cn1
melting point: 119 to 121 °C
//
Smiles representation: CC(=O)c1cc(Cl)cc(Oc2ncccc2C(=O)NCc2ccc(C(C)(C)O)cc2Cl)c1
melting point: 58 to 60 °C
